Target: Torsin-1A-interacting protein 1 (Homo sapiens) (UniProt Q5JTV8)
Sequence (Q5JTV8 whole entry, looked up): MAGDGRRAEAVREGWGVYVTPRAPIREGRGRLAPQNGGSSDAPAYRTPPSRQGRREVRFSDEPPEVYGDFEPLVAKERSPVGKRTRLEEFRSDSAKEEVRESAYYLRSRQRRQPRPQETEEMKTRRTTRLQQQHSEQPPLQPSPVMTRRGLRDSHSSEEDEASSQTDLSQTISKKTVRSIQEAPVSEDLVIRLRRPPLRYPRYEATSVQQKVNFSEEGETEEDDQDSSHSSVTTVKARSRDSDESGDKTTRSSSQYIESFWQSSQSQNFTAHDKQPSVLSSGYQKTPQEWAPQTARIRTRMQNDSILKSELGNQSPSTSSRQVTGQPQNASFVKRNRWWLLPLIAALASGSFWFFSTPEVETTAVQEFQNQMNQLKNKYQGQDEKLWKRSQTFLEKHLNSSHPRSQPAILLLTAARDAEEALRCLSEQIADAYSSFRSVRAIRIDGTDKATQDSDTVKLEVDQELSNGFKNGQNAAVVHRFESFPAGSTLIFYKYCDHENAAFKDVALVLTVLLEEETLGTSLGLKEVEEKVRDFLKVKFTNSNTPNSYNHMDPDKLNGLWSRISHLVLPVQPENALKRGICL
Assay: LAP1 binders from COS7 cell lysate, primary screen, small-molecule microarray, 635/667 nm fluorescence (AID 1116)
Conditions: COS7-hLAP1 lysate binding, 635 nm fluorescence, higher = more signal
// no strictly below 0.5 in composite z-score; yes otherwise

| molecule | class-assignment |
| --- | --- |
| CS(=O)(=O)CCOC(=O)C1=CC(c2ccc(CO)cc2)=CC(C2CC2)N(Cc2cc3c(cc2Br)OCO3)C=C1C(=O)OCCS(C)(=O)=O (stereo not given) | yes |
| O=C1C[C@]2(c3ccc([N+](=O)[O-])cc3)C(=O)N(CC(F)(F)F)c3cc(CO)ccc3[C@H]2N1CC12CC3CC(CC(C3)C1)C2 | no |
| COc1ccc([Si](C)(C)[C@@H]2[C@@H](CCn3cc([C@H](O)c4ccccc4)nn3)O[C@]3(C(=O)N(Cc4cccc(N5CCOC5=O)c4)c4ccccc43)[C@H]2C)cc1 | no |
| O=C/C=C/c1ccc(Cl)cc1 | no |
| N[C@@H](Cc1ccccc1)Cn1cc(-c2ccccc2)nn1 | no |
| CC(C)Cc1ccc(CN2CC[C@@H](NS(=O)(=O)c3ccccc3)C2)cc1 | no |
| Cc1ccc([C@H]2[C@H](C(=O)O)[C@H](Sc3ccccc3)[C@@H](C(C)C)N2S(=O)(=O)c2ccc(C)cc2)cc1 | yes |
| COCCOC(=O)N1C(=O)[C@@]2(c3cc(C#Cc4ccc(OC)cc4)ccc31)[C@H](C(=O)N1CCN(c3ncccn3)CC1)[C@H]1C(=O)O[C@H](c3ccccc3)[C@H](c3ccccc3)N1[C@@H]2c1ccc(O)cc1 | no |
| O=C(CS)NCCCCCCNC(=O)[C@H]1C[C@H]2C(=O)NCC(=O)N2[C@H]1c1ccc(O)cc1 | no |
| CC(C)(C)OC(=O)CC[C@]1(C(=O)N2CCCCC2)N=C(c2ccc(OCCCO)cc2)O[C@H]1c1ccccc1N=[N+]=[N-] | yes |
| NC(=O)NCC#Cc1ccc2c(c1)[C@]1(C(=O)N2)[C@H](C(=O)NC[C@H](O)c2ccccc2)[C@H]2C(=O)O[C@H](c3ccccc3)[C@H](c3ccccc3)N2[C@@H]1c1ccc(O)cc1 | yes |
| COC(=O)[C@@]1(Cc2ccccc2N=[N+]=[N-])COC(c2ccc(OCCCO)cc2)=N1 | yes |
| COc1ccc([Si](C)(C)[C@H]2[C@H](CCn3cc(CCO)nn3)O[C@@]3(C(=O)N(Cc4ccc(N5CCOC5=O)cc4)c4ccccc43)[C@@H]2C)cc1 | yes |
| CC(=O)Nc1cc(Br)ccc1C(=O)O | no |
| CCCCC=C[C@@H](NC(=O)c1ccco1)c1ccccc1 | no |
| NCCCCCNC(=O)[C@H]1C[C@H]2C(=O)NCC(=O)N2[C@H]1c1cccc(OCCO)c1 | yes |
| CCOC(=O)C[C@H]1[C@H](OC(=O)c2ccccc2-c2ccccc2)[C@@H](NC(=O)Cc2ccc(OC)cc2)c2cc(OCCCO)ccc2N1C(=O)c1ccccc1 | no |
| COC(=O)[C@@]1(Cc2ccc(F)cc2)[C@H]2c3cc(C(=O)N4CCCC4)n(Cc4cccc5ccccc45)c3C[C@H]2CN1C(=O)c1ccccc1 | yes |
| [N-]=[N+]=NCc1ccccc1[C@@H]1OC(c2ccc(OCCCO)cc2)=N[C@]1(Cc1ccccc1N=[N+]=[N-])C(=O)NCc1ccccc1 | yes |
| CCCCC=C[C@@H](NC(=O)c1ccc(C(=O)OC)cc1)c1ccccc1 | no |
| [N-]=[N+]=Nc1ccccc1[C@@H]1OC(c2ccc(OCCCO)cc2)=N[C@]1(CCS(=O)(=O)c1ccccc1)C(=O)N1CCOCC1 | yes |
| COC(=O)[C@]1(Cc2ccccc2N=[N+]=[N-])N=C(c2ccc(OCCCO)cc2)O[C@@H]1c1ccccc1N=[N+]=[N-] | no |
| CCC[C@@H]1C=C(C(=O)O)[C@H](c2ccc(C)cc2)N1S(=O)(=O)c1ccc(C)cc1 | yes |
| COc1cc2c(cc1O)C(C)N(Cc1cccc(OC(F)(F)F)c1)CC2 (stereo not given) | yes |
| C=C[C@@H](COC(C)=O)N(Cc1ccccc1[N+](=O)[O-])S(=O)(=O)c1ccc(Br)cc1 | yes |
| COc1ccc([Si](C)(C)[C@@H]2[C@@H](CCn3cc([C@H](O)c4ccccc4)nn3)O[C@]3(C(=O)N(Cc4ccc(N5C(=O)c6cccc7cccc5c67)cc4)c4ccccc43)[C@H]2C)cc1 | no |
| CC(C)N1C(=O)[C@@]2(c3ccc([N+](=O)[O-])cc3)CC(=O)N(CC34CC5CC(CC(C5)C3)C4)[C@@H]2c2ccc(CO)cc21 | no |
| CCCCC=C[C@@H](NC(=O)c1cccs1)c1ccccc1 | no |
| O=C(O)[C@H]1C[C@H]2C(=O)NCC(=O)N2[C@H]1c1ccc(O)cc1 | yes |
